# Tested on: cat fleas (Ctenocephalides felis), NC Fleas
# measurementProtocol: In vivo cat flea contact assay, NC fleas
# particulars: contact with treated filter disk in vial, about 24-30 hours; mM = concentration of the DMSO solution, about 1 μL applied
readoutName: LD50 (mM), NC Fleas

molecule: FC(F)(F)c1cc(Cl)c(-n2cc3c(n2)C2CCC3C2)c(Cl)c1 (stereo not shown)
readoutName: LD50 (mM), NC Fleas
result: 12 mM
//
molecule: FC(F)(F)c1cc(Cl)c(-n2cc3c(n2)CCCCC3)c(Cl)c1
readoutName: LD50 (mM), NC Fleas
result: 33.5 mM
//
molecule: FC(F)(F)c1cc(Cl)c(-n2cc3c(n2)CCCC3)c(Cl)c1
readoutName: LD50 (mM), NC Fleas
result: 20 mM
//
molecule: FC(F)(F)c1cc(Cl)c(-n2cc3c(n2)CCC3)c(Cl)c1
readoutName: LD50 (mM), NC Fleas
result: 7 mM
//
molecule: CC1(C)CCc2nn(-c3c(Cl)cc(C(F)(F)F)cc3Cl)cc21
readoutName: LD50 (mM), NC Fleas
result: 15 mM
//
molecule: O=S1(=O)Cc2cn(-c3c(Cl)cc(C(F)(F)F)cc3Cl)nc2C1
readoutName: LD50 (mM), NC Fleas
result: >100 mM
//
molecule: FC(F)(F)c1cc(Cl)c(-n2cc3c(n2)CSC3)c(Cl)c1
readoutName: LD50 (mM), NC Fleas
result: 3.0 mM

---

Recorded IC50 for the following compounds
# targetOfAssay: Mouse Brain GABA Receptors
# measurementProtocol: In vitro assay of binding to mouse brain GABA receptors (3H-EBOB displacement, mouse brain membranes)
# particulars: displacement of 5.2 nM 3H-EBOB, about 45 min at about 24° C.
readoutName: IC50 (nM)

compound: FC(F)(F)c1cc(Cl)c(-n2cc3c(n2)CCC3(F)F)c(Cl)c1 [Compound 61]
readoutName: IC50
resultUnit: nM
quantitativeResult: 1000
//
compound: FC1Cc2nn(-c3c(Cl)cc(C(F)(F)F)cc3Cl)cc2C1(F)F (centres unmarked) [Compound 56]
readoutName: IC50
resultUnit: nM
quantitativeResult: 1000
//
compound: FC(F)(F)c1cc(Cl)c(-n2cc3c(n2)CC(F)(F)C3(F)F)c(Cl)c1 [Compound 92]
readoutName: IC50
resultUnit: nM
quantitativeResult: 60
//
compound: FC(F)(F)c1cc(Cl)c(-n2cc3c(n2)CSC3)c(Cl)c1 [Compound 3]
readoutName: IC50
resultUnit: nM
quantitativeResult: 2000
//
compound: FC(F)(F)c1cc(Cl)c(-n2cc3c(n2)CCCCC3)c(Cl)c1 [Compound 15]
readoutName: IC50
resultUnit: nM
quantitativeResult: 30000

---

# targetOfAssay: Mouse Brain GABA Receptors
# measurementProtocol: In vitro assay of binding to mouse brain GABA receptors (3H-EBOB displacement, mouse brain membranes)
# particulars: displacement of 5.2 nM 3H-EBOB, about 45 min at about 24° C.
Recorded IC50 for the following compounds
readoutName: IC50 (nM)

compound: FC1c2nn(-c3c(Cl)cc(C(F)(F)F)cc3Cl)cc2C(F)(F)C1F (centres unmarked)
quantitativeResult: 180
--
compound: O=S(=O)(C1CCc2nn(-c3c(Cl)cc(C(F)(F)F)cc3Cl)cc21)C(F)(F)F (centres unmarked)
quantitativeResult: 25000
--
compound: FC(F)(F)c1cc(Cl)c(-n2cc3c(n2)CCSC3)c(Cl)c1
quantitativeResult: 3800
--
compound: FC(F)(F)c1cc(Cl)c(-n2cc3c(n2)CC=C3)c(Cl)c1
quantitativeResult: 1000
--
compound: CC1(C)CCc2cn(-c3c(Cl)cc(C(F)(F)F)cc3Cl)nc21
quantitativeResult: 30000
--
compound: F[C@@H]1Cc2cn(-c3c(Cl)cc(C(F)(F)F)cc3Cl)nc2[C@@H]1F (relative stereo)
quantitativeResult: 1000
--
compound: O=S(=O)(Oc1c2c(nn1-c1c(Cl)cc(C(F)(F)F)cc1Cl)CSC2)c1ccccc1
quantitativeResult: 730
--
compound: CSC1CCc2nn(-c3c(Cl)cc(C(F)(F)F)cc3Cl)cc21 (centres unmarked)
quantitativeResult: 1000
